# experimental-target: T1, Human SIRPγ (human, UniProt Q9P1W8 29-147, limits assumed)
# T1 construct: Soluble analyte in SPR
# T1 sequence (Q9P1W8 29-147 limits assumed): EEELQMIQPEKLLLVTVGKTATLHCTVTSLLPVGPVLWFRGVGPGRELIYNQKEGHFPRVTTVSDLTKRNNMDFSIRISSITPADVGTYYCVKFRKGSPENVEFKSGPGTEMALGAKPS
# assay-text: SPR, antibody on GLC chip, SIRP as analyte
reported-property: pKd
Note: pKd values are expressed as the negative base-10 logarithm of concentration in M.

Below: 9 binders and their reported pKd.
binder | reported-property | number
Anti-SIRP-α antibody 119, light chain wt, heavy chain wt (antibody, V domains shown, Whole antibody (FreeStyle 293-FS, protein A purified)) VH: EVQLLESGGGVVQPGGSLRLSCAASGFSFSNFAMTWVRQAPGEGLEWVSTIGSGDTYYADSVKGRFTISRDNSKNTLYLQMNSLRAEDTAVYYCAKDSTVSWSGDFFDYWGLGTLVTVSS VL: EIVLTQSPATLSVSPGERATFSCRASQNVKNDLAWYQQRPGQAPRLLIYAARIRETGIPERFSGSGSGTEFTLTITSLQSEDFAVYYCQQYYDWPPFTFGGGTKVEIK | pKd | 9.57
Anti-SIRP-α antibody 135, light chain Mut, heavy chain wt (antibody, V domains shown, Whole antibody; Light chain mut = F21L, D60A) VH: DVQLVESGGGVVRPGESLRLSCAASGFSFSIYAMSWVRQAPGEGLEWVSTIGADDTYYADSVKGRFTISRDNSKNTLYLQMNSLRAEDTAVYYCAKDSTVGWSGDFFDYWGLGTLVTVSS VL: EIVLTQSPATLSVSPGERVTLSCRASQNVRSDIAWYQQKPGQAPRLLIYAASSRDTGIPARFSGSGSGTDFTLTISSLQSEDFGVYYCQQYYDWPPFTFGGGTKVEIK | pKd | 9.28
Anti-SIRP-α antibody 119, light chain Mut, heavy chain Mut (antibody, V domains shown, Whole antibody) VH: EVQLLESGGGVVQPGGSLRLSCAASGFSFSNFAVTWVRQAPGKGLEWVSTIGSGDTYYADSVKGRFTISRDNSKNTLYLQMNSLRAEDTAVYYCAKDSTVSWSGDFFDYWGQGTLVTVSS VL: EIVLTQSPATLSVSPGERATLSCRASQNVKNDLAWYQQKPGQAPRLLIYAARIRETGIPARFSGSGSGTEFTLTISSLQSEDFAVYYCQQYYDWPPFTFGGGTKVEIK | pKd | 9.47
Anti-SIRP-α antibody 136, light chain Mut, heavy chain Mut (antibody, V domains shown, Whole antibody) VH: EVQLVESGGGVVQPGRSLRLSCAASGFTFSSYDVNWVRQAPGKGLEWVSLISGSGEIIYYADSVKGRFTISRDNSKNTLYLQMNSLRAEDTAVYYCAKENNRYRFFDDWGQGTLVTVSS VL: EIVLTQSPGTLSLSPGERATLSCRASQSVYTYLAWYQQKPGQAPRLLIYGASSRATGIPDRFSGSGSGTEFTLTISSLQSEDFAVYYCQQYYDRPPLTFGGGTKVEIK | pKd | 8.77
Anti-SIRP-α antibody 136, light chain Mut_Q38E, heavy chain Mut (antibody, V domains shown, Whole antibody) VH: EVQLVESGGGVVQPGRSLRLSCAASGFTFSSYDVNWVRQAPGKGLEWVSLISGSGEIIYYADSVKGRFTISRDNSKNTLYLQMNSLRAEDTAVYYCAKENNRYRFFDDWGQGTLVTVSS VL: EIVLTQSPGTLSLSPGERATLSCRASQSVYTYLAWYQEKPGQAPRLLIYGASSRATGIPDRFSGSGSGTEFTLTISSLQSEDFAVYYCQQYYDRPPLTFGGGTKVEIK | pKd | 7.72
Anti-SIRP-α antibody 135, light chain Mut, heavy chain Mut (antibody, V domains shown, Whole antibody) VH: EVQLVESGGGVVQPGGSLRLSCAASGFSFSIYAVSWVRQAPGKGLEWVSTIGADDTYYADSVKGRFTISRDNSKNTLYLQMNSLRAEDTAVYYCAKDSTVGWSGDFFDYWGQGTLVTVSS VL: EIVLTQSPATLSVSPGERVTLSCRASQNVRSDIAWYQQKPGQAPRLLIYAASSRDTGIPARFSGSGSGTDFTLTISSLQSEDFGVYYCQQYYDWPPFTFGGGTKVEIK | pKd | 9.14
Anti-SIRP-α antibody 135, light chain wt, heavy chain Mut_V34M (antibody, V domains shown, Whole antibody) VH: EVQLVESGGGVVQPGGSLRLSCAASGFSFSIYAMSWVRQAPGKGLEWVSTIGADDTYYADSVKGRFTISRDNSKNTLYLQMNSLRAEDTAVYYCAKDSTVGWSGDFFDYWGQGTLVTVSS VL: EIVLTQSPATLSVSPGERVTFSCRASQNVRSDIAWYQQKPGQAPRLLIYAASSRDTGIPDRFSGSGSGTDFTLTISSLQSEDFGVYYCQQYYDWPPFTFGGGTKVEIK | pKd | 9.28
Anti-SIRP-α antibody 136, light chain Mut_S12T, heavy chain Mut (antibody, V domains shown, Whole antibody) VH: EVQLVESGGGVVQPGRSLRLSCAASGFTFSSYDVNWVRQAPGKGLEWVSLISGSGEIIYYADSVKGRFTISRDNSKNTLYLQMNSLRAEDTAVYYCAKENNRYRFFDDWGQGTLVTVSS VL: EIVLTQSPGTLTLSPGERATLSCRASQSVYTYLAWYQQKPGQAPRLLIYGASSRATGIPDRFSGSGSGTEFTLTISSLQSEDFAVYYCQQYYDRPPLTFGGGTKVEIK | pKd | 7.17
Anti-SIRP-α antibody 136, light chain Mut_S22T, heavy chain Mut (antibody, V domains shown, Whole antibody) VH: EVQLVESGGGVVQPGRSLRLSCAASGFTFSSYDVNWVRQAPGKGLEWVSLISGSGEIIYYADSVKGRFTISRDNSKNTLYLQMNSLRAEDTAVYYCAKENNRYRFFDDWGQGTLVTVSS VL: EIVLTQSPGTLSLSPGERATLTCRASQSVYTYLAWYQQKPGQAPRLLIYGASSRATGIPDRFSGSGSGTEFTLTISSLQSEDFAVYYCQQYYDRPPLTFGGGTKVEIK | pKd | 7.21

Prompt: Look up pKd for this binder: Anti-SIRP-α antibody 136, light chain Mut_I2T, heavy chain Mut (antibody, V domains shown, Whole antibody) VH: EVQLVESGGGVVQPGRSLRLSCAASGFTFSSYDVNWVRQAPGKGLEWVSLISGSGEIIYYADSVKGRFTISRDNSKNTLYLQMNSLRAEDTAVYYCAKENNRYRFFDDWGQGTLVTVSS VL: ETVLTQSPGTLSLSPGERATLSCRASQSVYTYLAWYQQKPGQAPRLLIYGASSRATGIPDRFSGSGSGTEFTLTISSLQSEDFAVYYCQQYYDRPPLTFGGGTKVEIK
Response: 7.40

Cited source: patent US20220096649A1
